Tested on: LN18 glioblastoma cell line
test protocol: In-vitro cell survival assay (Alamar blue), LN18
Assay type: cell-based
assay conditions: Homo sapiens, LN-18, 24 h; LN18, one day after compound addition
Please respond with reported EC50 for every item in the list.
Numbers only, in µM.

The following compounds each have a reported value; give each one's EC50.
1. O=C(NCC(c1cccs1)S(=O)(=O)c1ccc(F)cc1)c1ccccc1 (stereo not drawn) [drawing 434]
2. O=C(NCC1CCNCC1)c1cccc(Nc2ncc(Cl)c(Nc3ccc4ncsc4c3)n2)c1 [drawing 471]
3. C[C@@H](Oc1cc(-c2cnn(C3CCNCC3)c2)cnc1N)c1c(Cl)ccc(F)c1Cl [drawing 491]

Marked response:
1. 21
2. 30
3. 20

----------
Tested on: glioblastoma cell lines
test protocol: Glioblastoma growth inhibition by Xalkori (cell-based assay, FIG. 3)
assay conditions: depending on the cell line (FIG. 3)
pEC50: −log10 of the molar value.
experimental readout: pEC50

Exam item: Data request, read-out pEC50, for C[C@@H](Oc1cc(-c2cnn(C3CCNCC3)c2)cnc1N)c1c(Cl)ccc(F)c1Cl [Crizotinib]
Marked response: 7.70 to 7.92

----------
tested on: ROS (Homo sapiens)
Sequence (P08922 28-2347): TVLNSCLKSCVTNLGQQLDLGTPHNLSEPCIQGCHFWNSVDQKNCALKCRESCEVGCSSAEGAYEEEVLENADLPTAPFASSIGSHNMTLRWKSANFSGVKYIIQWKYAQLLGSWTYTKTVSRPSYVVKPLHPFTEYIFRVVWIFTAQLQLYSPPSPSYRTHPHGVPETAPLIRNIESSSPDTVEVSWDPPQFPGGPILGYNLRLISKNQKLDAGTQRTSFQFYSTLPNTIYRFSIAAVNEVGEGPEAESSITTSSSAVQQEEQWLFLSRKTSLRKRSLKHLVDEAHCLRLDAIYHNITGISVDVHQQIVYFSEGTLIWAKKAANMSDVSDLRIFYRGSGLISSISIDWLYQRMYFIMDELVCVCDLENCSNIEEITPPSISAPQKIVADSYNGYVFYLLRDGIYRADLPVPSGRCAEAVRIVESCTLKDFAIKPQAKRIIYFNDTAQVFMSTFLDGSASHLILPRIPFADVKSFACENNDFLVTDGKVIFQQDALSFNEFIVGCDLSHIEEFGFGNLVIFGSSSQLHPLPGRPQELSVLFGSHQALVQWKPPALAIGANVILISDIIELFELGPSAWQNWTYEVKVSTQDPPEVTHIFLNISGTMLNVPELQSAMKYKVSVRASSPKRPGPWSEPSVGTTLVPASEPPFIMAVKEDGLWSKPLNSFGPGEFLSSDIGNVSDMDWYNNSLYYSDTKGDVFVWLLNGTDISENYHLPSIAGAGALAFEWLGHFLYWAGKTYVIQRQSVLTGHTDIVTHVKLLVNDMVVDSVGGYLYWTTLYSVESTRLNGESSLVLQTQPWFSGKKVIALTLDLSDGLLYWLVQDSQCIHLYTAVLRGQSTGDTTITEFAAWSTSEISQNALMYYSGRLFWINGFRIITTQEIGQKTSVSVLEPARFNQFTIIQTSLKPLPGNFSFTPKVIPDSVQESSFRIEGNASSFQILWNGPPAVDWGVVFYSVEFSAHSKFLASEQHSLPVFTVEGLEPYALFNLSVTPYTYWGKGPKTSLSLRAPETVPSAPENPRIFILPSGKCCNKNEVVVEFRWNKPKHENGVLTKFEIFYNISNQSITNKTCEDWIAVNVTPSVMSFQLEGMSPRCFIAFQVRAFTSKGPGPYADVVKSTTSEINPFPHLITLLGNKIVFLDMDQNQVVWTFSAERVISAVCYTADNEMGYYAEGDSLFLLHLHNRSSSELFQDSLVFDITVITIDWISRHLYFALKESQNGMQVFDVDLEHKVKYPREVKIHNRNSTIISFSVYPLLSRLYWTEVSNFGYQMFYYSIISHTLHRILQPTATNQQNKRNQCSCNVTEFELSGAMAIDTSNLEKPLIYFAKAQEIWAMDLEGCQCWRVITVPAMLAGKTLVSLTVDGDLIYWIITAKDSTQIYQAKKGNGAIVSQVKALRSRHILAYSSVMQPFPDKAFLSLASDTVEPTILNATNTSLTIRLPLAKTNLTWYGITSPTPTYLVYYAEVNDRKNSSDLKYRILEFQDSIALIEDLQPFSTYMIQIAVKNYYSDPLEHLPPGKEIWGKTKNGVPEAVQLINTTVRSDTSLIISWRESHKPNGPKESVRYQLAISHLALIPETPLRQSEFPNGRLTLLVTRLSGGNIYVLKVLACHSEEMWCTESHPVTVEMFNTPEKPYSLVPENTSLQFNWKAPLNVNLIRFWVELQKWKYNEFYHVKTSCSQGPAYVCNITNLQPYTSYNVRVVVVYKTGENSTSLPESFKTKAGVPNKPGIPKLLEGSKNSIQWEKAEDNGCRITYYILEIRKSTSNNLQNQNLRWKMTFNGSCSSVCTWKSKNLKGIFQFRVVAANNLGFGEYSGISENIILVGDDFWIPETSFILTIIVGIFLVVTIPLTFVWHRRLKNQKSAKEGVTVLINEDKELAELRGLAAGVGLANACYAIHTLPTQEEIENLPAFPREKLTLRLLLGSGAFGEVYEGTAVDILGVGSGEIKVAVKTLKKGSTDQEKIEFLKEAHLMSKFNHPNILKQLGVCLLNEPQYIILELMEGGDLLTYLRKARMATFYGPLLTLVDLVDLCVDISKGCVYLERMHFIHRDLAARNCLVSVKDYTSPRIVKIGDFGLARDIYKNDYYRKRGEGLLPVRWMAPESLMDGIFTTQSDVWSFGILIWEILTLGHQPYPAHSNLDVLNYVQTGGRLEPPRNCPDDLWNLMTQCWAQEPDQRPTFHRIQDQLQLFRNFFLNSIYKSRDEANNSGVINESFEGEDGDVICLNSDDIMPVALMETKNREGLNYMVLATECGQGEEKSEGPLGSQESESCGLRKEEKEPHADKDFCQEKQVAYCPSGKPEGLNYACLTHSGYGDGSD
test protocol: In vitro ROS enzymatic reaction assay (HTRF, Cisbio)
Format: biochemical
Set-up: ROS or EGFR enzyme, 0.008 ng/ul
assay conditions: ROS kinase, compound at 5 uM; read-out: Kinase Inhib. 5 uM (%)
Please respond with reported inhibition at 5 µM for every item in the list.
Give bare numbers, in %.

A selection of reference data follows.
Nc1nc(Nc2ccc(C(=O)NCCc3ccncc3)cc2)cc(Nc2ccc3ncsc3c2)n1 [drawing 280] | 61.1
Cc1cccc(Nc2nccc(Nc3cccc(C(=O)NCc4ccccc4F)c3)n2)c1 [drawing 275] | 33.3
C1=C(c2cccc(Nc3nccc(Nc4ccc5ncsc5c4)n3)c2)CCNC1 [drawing 304] | 101
CC(C)c1nc(Nc2ccc(C(=O)NCc3ccccc3)cc2)nc(Nc2ccc3ncsc3c2)n1 [drawing 322] | 97.4
NCC1CCN(C(=O)c2ccc(Nc3ncc(Cl)c(Nc4ccc5ncsc5c4)n3)cc2)CC1 [drawing 326] | 100
Nc1cccc(C2CCN(c3nccc(Nc4ccc5ncsc5c4)n3)CC2)c1 [drawing 302] | 101

The following compounds each have a reported value; give each one's inhibition at 5 µM.
1. Cc1ccc(NC=C2C(=O)NN=C2c2ccccc2)cc1 [drawing 233]
2. Cc1cccc(Nc2nccc(Nc3cccc(C(=O)NCc4ccc(F)cc4)c3)n2)c1 [drawing 242]
3. Cc1nc2cc(C(=O)N[C@H](c3ccccc3)c3cccnc3)ccc2[nH]1 [drawing 261]

Marked response:
1. 43.7
2. 23.7
3. 23.6

----------
tested on: ROS (Homo sapiens)
test protocol: In vitro ROS enzymatic reaction assay (HTRF, Cisbio)
Assay type: biochemical
Parameters: ROS or EGFR enzyme, 0.008 ng/ul
assay conditions: ROS kinase, compound at 5 uM; read-out: Kinase Inhib. 5 uM (%)
experimental readout: inhibition at 5 µM

A selection of reference data follows.
C[C@H](O)CN(C[C@H](C)O)C(=O)c1cccc(Nc2nccc(Nc3ccc4ncsc4c3)n2)c1 [drawing 283] | 101%
c1cc(Nc2cc(C3CC3)[nH]n2)nc(Nc2ccc(NCc3cc(C4OCCO4)c(C4OCCO4)s3)cc2)n1 [drawing 300] | 79.3%
O=C(NCc1ccco1)c1cccc(Nc2nccc(Nc3ccc4ncsc4c3)n2)c1 [drawing 239] | 101%
Cc1cccc(Nc2nccc(Nc3cccc(C(=O)NCCCN4CCOCC4)c3)n2)c1 [drawing 279] | 92.9%
C[C@@H](Oc1cc(-c2cnn(C3CCNCC3)c2)cnc1N)c1c(Cl)ccc(F)c1Cl [drawing 354] | 100%
CC(=O)N[C@@H]1CCN(C(=O)c2cccc(Nc3cc(N(C)c4cccc(C)c4)ncn3)c2)C1 [drawing 241] | 29.6%
CC(C)c1nc(Nc2ccc(C(=O)NC3CCCCC3)cc2)nc(Nc2ccc3ncsc3c2)n1 [drawing 319] | 98.8%
CC1=NNC(=O)/C1=C\c1cn(-c2ccccc2)nc1-c1ccccc1 [drawing 266] | 62%
O=C(NCC1CCNCC1)c1cccc(Nc2ncc(Cl)c(Nc3ccc4ncsc4c3)n2)c1 [drawing 334] | 100%
CC(C)c1nc(Nc2ccc(C(=O)N3CCOCC3)cc2)nc(Nc2ccc3ncsc3c2)n1 [drawing 323] | 65.7%

The following compounds each have a reported value; give each one's inhibition at 5 µM.
1. c1cc(Nc2nccc(Nc3ccc4ncsc4c3)n2)cc(C2CCNCC2)c1 [drawing 303]
2. CC(C)c1nc(Nc2ccc3ncsc3c2)nc(N2CCOCC2)n1 [drawing 315]
3. Nc1ccc(Nc2nccc(Nc3cc(C4CC4)[nH]n3)n2)cc1 [drawing 299]
4. Cc1cc(=O)n2nc(CC(=O)c3ccccc3)[nH]c2n1

Marked response:
1. 100%
2. 23.5%
3. 100%
4. 33.2%

----------
System: HeLa cervical cancer cell line
test protocol: In-vitro cell survival assay (Alamar blue), HeLa
Format: cell-based
assay conditions: Homo sapiens, 24 h, one day after compound addition
Please respond with reported pEC50 for every item in the list.
Give bare numbers, as −log10 of the molar value.

A selection of reference data follows.
O=C(NCc1cccs1)c1cccc(Nc2nccc(Nc3ccc4ncsc4c3)n2)c1 [drawing 410] | 5.05
O=C(NCCc1ccc(F)cc1)c1cccc(Nc2nccc(Nc3ccc4ncsc4c3)n2)c1 [drawing 372] | 5.30
O=C(CCn1ccc2ccccc21)Nc1cnccn1 [drawing 477] | 4.19

Okay, now this compound:
Exam item: Fill in the recorded pEC50 for this compound, with HeLa cervical cancer cell line as test system: O=C(NCc1ccc(F)cc1)c1cccc(Nc2nccc(Nc3ccc4ncsc4c3)n2)c1 [drawing 423]
Marked response: 5.22

----------
System: HeLa cervical cancer cell line
test protocol: In-vitro cell survival assay (Alamar blue), HeLa
Type: cell-based
assay conditions: Homo sapiens, 24 h, one day after compound addition
experimental readout: EC50

A selection of reference data follows.
CCc1cc(Br)ccc1NC(=O)CCn1ccc2ccccc21 [drawing 478] | 43 µM
O=C(c1ccc(Nc2ncc(Cl)c(Nc3ccc4ncsc4c3)n2)cc1)N1CCCCC1 [drawing 443] | > 100 µM
NC1CCN(C(=O)c2ccc(Nc3ncc(Cl)c(Nc4ccc5ncsc5c4)n3)cc2)CC1 [drawing 464] | 30 µM
Brc1cccc(Nc2nccc(Nc3ccc4ncsc4c3)n2)c1 [drawing 442] | > 100 µM
CC(C)c1nc(Nc2ccc(C(=O)N3CCOCC3)cc2)nc(Nc2ccc3ncsc3c2)n1 [drawing 460] | 35 µM

The following molecules each have a reported value; give each one's EC50.
1. Nc1ccc(Nc2nccc(Nc3cc(C4CC4)[nH]n3)n2)cc1 [drawing 436]
2. NCC1CCN(C(=O)c2ccc(Nc3ncc(Cl)c(Nc4ccc5ncsc5c4)n3)cc2)CC1 [drawing 463]
3. Cc1ccc(NC=C2C(=O)NN=C2c2ccccc2)cc1 [drawing 370]
4. CC(C)c1nc(Nc2ccc(C(=O)NCC3CCCCC3)cc2)nc(Nc2cccc(Cc3nc4ccccc4s3)c2)n1 [drawing 454]

Marked response:
0.4 µM
70 µM
> 100 µM
> 100 µM

----------
System: U118 glioblastoma cell line
test protocol: In-vitro cell survival assay (Alamar blue), U118
Format: cell-based
assay conditions: 24 h; U118, one day after compound addition
Flag rule - EC50 less than 30 µM flags true (1); the remaining entries get false (0).

// below: answered compounds
Cc1cc(C)n(-c2cccc(C(=O)NC[C@H]3Cc4cc(Cl)cc(-c5cnccn5)c4O3)c2)n1 | false (0)
Nc1nc(N)n(-c2ccccc2)/c(=N/c2ccccc2)n1 [drawing 395] | false (0)
Cc1[nH]c2nc(NCc3cccc([N+](=O)[O-])c3)nn2c(=O)c1Cc1ccccc1 [drawing 359] | false (0)
CCc1cc(Br)ccc1NC(=O)CCn1ccc2ccccc21 [drawing 478] | false (0)
O=C(CCn1ccc2ccccc21)Nc1cnccn1 [drawing 477] | false (0)
COc1ccccc1-c1cc(C(F)F)n2ncc(C(=O)NCc3cccnc3)c2n1 [drawing 361] | false (0)
Cc1cccc(Nc2nccc(Nc3cccc(C(=O)NC4CCN(C)CC4)c3)n2)c1 [drawing 422] | false (0)
c1cc(Nc2cc(C3CC3)[nH]n2)nc(Nc2ccc(NCc3cc(C4OCCO4)c(C4OCCO4)s3)cc2)n1 [drawing 437] | true (1)

Exam item: Take the compound CC(C)(C)c1cc(C(=O)NNc2cccc(Cl)c2)n(Cc2ccccc2)n1 [drawing 389] and say whether its EC50 is less than 30 µM.
Marked response: false (0)

Exam item: Would you mind doing CCOC(=O)c1ccc(NC(=O)CCn2ccc3ccccc32)cc1 [drawing 473] as well?
Marked response: false (0)

Exam item: Would you mind doing O=C(c1cccc(Nc2nccc(Nc3ccc4ncsc4c3)n2)c1)N1CCCCC1 [drawing 438] as well?
Marked response: false (0)

Exam item: Would you mind doing COc1ccc(C(F)(F)F)cc1NC(=O)CCn1ccc2ccccc21 [drawing 476] as well?
Marked response: false (0)

Exam item: Would you mind doing Cc1ccc(CNC(=O)c2cccc(Nc3nccc(Nc4ccc5ncsc5c4)n3)c2)o1 [drawing 419] as well?
Marked response: true (1)
